assay setup: in acetone, 318.15 K
measure name: solubility (mole fraction)
One number for each entry.

Can you look up the measured solubility (mole fraction) of "C=C1C[C@]23C[C@H]1CC[C@H]2[C@@]12CC[C@H](O)[C@@](C)(C(=O)O1)[C@H]2[C@@H]3C(=O)O" for me?
0.0917

* * *

assay setup: in water, 328.15 K
measure name: solubility (mole fraction)

Can you look up the measured solubility (mole fraction) of "C=C1C[C@]23C[C@H]1CC[C@H]2[C@@]12CC[C@H](O)[C@@](C)(C(=O)O1)[C@H]2[C@@H]3C(=O)O" for me?
9.2e-05

* * *

assay setup: in methanol, 333.15 K
measure name: solubility (mole fraction)
Answers are plain numbers.

Can you look up the measured solubility (mole fraction) of "C=C1C[C@]23C[C@H]1CC[C@H]2[C@@]12CC[C@H](O)[C@@](C)(C(=O)O1)[C@H]2[C@@H]3C(=O)O" for me?
0.121

* * *

assay setup: in ethanol, 318.15 K
measure name: solubility (mole fraction)
Give bare numbers.

Can you look up the measured solubility (mole fraction) of "C=C1C[C@]23C[C@H]1CC[C@H]2[C@@]12CC[C@H](O)[C@@](C)(C(=O)O1)[C@H]2[C@@H]3C(=O)O" for me?
0.00257

* * *

assay setup: in isopropanol, 313.15 K
measure name: solubility (mole fraction)

Can you look up the measured solubility (mole fraction) of "C=C1C[C@]23C[C@H]1CC[C@H]2[C@@]12CC[C@H](O)[C@@](C)(C(=O)O1)[C@H]2[C@@H]3C(=O)O" for me?
0.11

* * *

assay setup: in ethyl acetate, 288.15 K
measure name: solubility (mole fraction)

Can you look up the measured solubility (mole fraction) of "C=C1C[C@]23C[C@H]1CC[C@H]2[C@@]12CC[C@H](O)[C@@](C)(C(=O)O1)[C@H]2[C@@H]3C(=O)O" for me?
0.0134

* * *

assay setup: in water, 298.15 K
measure name: solubility (mole fraction)
One number for each entry.

Can you look up the measured solubility (mole fraction) of "C=C1C[C@]23C[C@H]1CC[C@H]2[C@@]12CC[C@H](O)[C@@](C)(C(=O)O1)[C@H]2[C@@H]3C(=O)O" for me?
2.8e-05

* * *

assay setup: in ethyl acetate, 313.15 K
measure name: solubility (mole fraction)
Numbers only.

Can you look up the measured solubility (mole fraction) of "C=C1C[C@]23C[C@H]1CC[C@H]2[C@@]12CC[C@H](O)[C@@](C)(C(=O)O1)[C@H]2[C@@H]3C(=O)O" for me?
0.0239

* * *

assay setup: in n-butanol, 293.15 K
measure name: solubility (mole fraction)
One number for each entry.

Can you look up the measured solubility (mole fraction) of "C=C1C[C@]23C[C@H]1CC[C@H]2[C@@]12CC[C@H](O)[C@@](C)(C(=O)O1)[C@H]2[C@@H]3C(=O)O" for me?
0.0723

* * *

assay setup: in n-butanol, 313.15 K
measure name: solubility (mole fraction)
Give bare numbers.

Can you look up the measured solubility (mole fraction) of "C=C1C[C@]23C[C@H]1CC[C@H]2[C@@]12CC[C@H](O)[C@@](C)(C(=O)O1)[C@H]2[C@@H]3C(=O)O" for me?
0.0872

* * *

assay setup: in acetonitrile, 313.15 K
measure name: solubility (mole fraction)
One number for each entry.

Can you look up the measured solubility (mole fraction) of "C=C1C[C@]23C[C@H]1CC[C@H]2[C@@]12CC[C@H](O)[C@@](C)(C(=O)O1)[C@H]2[C@@H]3C(=O)O" for me?
0.0124
